Recorded melting point values for a group of compounds are listed next.

{"compound": "COC(=O)c1cc(C2(c3cccc(-c4cc(F)ccc4F)c3)N=C(N)N(C)C2=O)cn1CCF (stereo not shown)", "result": "166 to 170 °C"}
{"compound": "CN1C(=O)C(c2cccc(-c3cccnc3F)c2)(c2cnn(C3CCCC3)c2)N=C1N (stereo not shown)", "result": "106 to 109 °C"}
{"compound": "CCC1(c2cc(C3(c4cccc(-c5cccnc5F)c4)N=C(N)N(C)C3=O)cs2)OCCO1 (stereo not shown)", "result": "93 to 103 °C"}

API: the following record is the query input.
# compound CC(C)CCOc1cccc(C2(c3ccsc3)N=C(N)N(C)C2=O)c1 (stereo not shown) ; its melting point = 84 to 88 °C

----------
# melting point per record follows

{"compound": "CCC(=O)c1cc([C@]2(c3cccc(-c4cccnc4F)c3)N=C(N)N(C)C2=O)cn1CC", "melting point": "94 to 97 °C"}
{"compound": "CN1C(=O)C(c2cccc(-c3cccnc3F)c2)(c2cnn(CCF)c2)N=C1N (stereo not shown)", "melting point": "195 to 197 °C"}
{"compound": "CCOC(=O)c1cc(C2(c3ccc(F)c(-c4cccnc4F)c3)N=C(N)N(C)C2=O)cn1CC (stereo not shown)", "melting point": "114 to 115 °C"}
{"compound": "CCC(=O)c1cc(C2(c3cccc(-c4cccc(Cl)c4)c3)N=C(N)N(C)C2=O)cn1CC(F)(F)F (stereo not shown)", "melting point": "108 to 110 °C"}

melting point recorded for this compound, CN1C(=O)C(c2cccc(OCC3CC3)c2)(c2cnn(CC(F)(F)F)c2)N=C1N (stereo not shown) , is 78 to 80 °C

Note to self: melting point recorded for CCn1cc(C2(c3cccc(-c4cccnc4F)c3)N=C(N)N(C)C2=O)cc1C(=O)C(C)C (stereo not shown) was 85 to 88 °C

Kindly note the recorded melting point for CCCCNC(=O)c1cc(C2(c3cccc(-c4cccnc4F)c3)N=C(N)N(C)C2=O)cn1CC (stereo not shown) , which is 118 to 120 °C

Note to self: melting point recorded for CN1C(=O)C(c2cccc(-c3cccc(F)c3F)c2)(c2cnn(CC(F)(F)F)c2)N=C1N (stereo not shown) was 103 to 105 °C

Recorded melting point (compound CN1C(=O)C(c2cc[nH]c2)(c2cccc(O)c2)N=C1N (stereo not shown) ): 142 to 145 °C

Record summary for CN1C(=O)C(c2cccc(-c3cncnc3)c2)(c2cc(C#N)n(C)c2)N=C1N (stereo not shown) : reported melting point = 214 to 225 °C

Short answer for CC(C)CCn1cc(C2(c3cccc(-c4cncnc4)c3)N=C(N)N(C)C2=O)cn1 (stereo not shown) : melting point was 87 to 90 °C

Record CCC(=O)c1cc(C2(c3ccc(F)c(-c4cncnc4)c3)N=C(N)N(C)C2=O)cn1CC(F)(F)F (stereo not shown) . Reported melting point: 225 to 226 °C

melting point reading for COC(=O)c1cc(C2(c3cccc(-c4cccc(C#N)c4)c3)N=C(N)N(C)C2=O)cn1CCF (stereo not shown) : 98 to 101 °C

The reported value for COC(=O)c1cc(C2(c3ccc(F)c(-c4cncnc4)c3)N=C(N)N(C)C2=O)cn1CC(F)(F)F (stereo not shown) in terms of melting point is 182 to 184 °C

According to the records, this compound CN1C(=O)C(c2cc[nH]c2)(c2cccc(OCc3ccccc3)c2)N=C1N (stereo not shown) displays melting point of 98 to 100 °C

Entry CCC(C)C(=O)c1cc(C2(c3cccc(-c4cccnc4F)c3)N=C(N)N(C)C2=O)cn1CC (stereo not shown) — recorded melting point = 210 to 211 °C

----------
Where a name gives a salt, the structure may show the parent alone.
# UniProtKB P56817: IC50 values follow
# Sequence (P56817 46-501): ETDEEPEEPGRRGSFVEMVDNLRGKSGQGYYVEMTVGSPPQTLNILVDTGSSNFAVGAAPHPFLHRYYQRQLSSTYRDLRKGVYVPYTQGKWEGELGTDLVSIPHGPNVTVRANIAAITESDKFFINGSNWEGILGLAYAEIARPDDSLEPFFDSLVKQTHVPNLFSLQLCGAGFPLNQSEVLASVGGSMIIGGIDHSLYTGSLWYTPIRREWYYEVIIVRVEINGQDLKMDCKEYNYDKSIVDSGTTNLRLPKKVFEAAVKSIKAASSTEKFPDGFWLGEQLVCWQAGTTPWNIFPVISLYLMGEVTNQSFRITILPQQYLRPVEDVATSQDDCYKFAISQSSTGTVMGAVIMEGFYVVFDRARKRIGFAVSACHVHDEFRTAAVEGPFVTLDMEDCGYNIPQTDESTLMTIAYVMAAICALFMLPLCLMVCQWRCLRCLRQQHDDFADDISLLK

Known IC50 results, listed for orientation:
{"compound": "CN1C(=O)C(c2cccc(-c3cccnc3F)c2)(c2cc(C=O)n(CCF)c2)N=C1N (stereo not shown) [Example 234]", "result": "10 to 100 nM"}
{"compound": "CCn1cc(C2(c3cccc(-c4cccnc4F)c3)N=C(N)N(C)C2=O)cc1/C=N/OC (stereo not shown) [Example 241, hydrochloride]", "result": "10 to 100 nM"}
{"compound": "CCOc1ccc(C2(c3cc(C(=O)NC)n(CC)c3)N=C(N)N(C)C2=O)cc1-c1cccnc1F (stereo not shown) [Example 128]", "result": "> 1000 nM"}
{"compound": "COC(=O)c1cc([C@]2(c3ccc(F)c(-c4cncnc4)c3)N=C(N)N(C)C2=O)cn1CCF [Example 119A]", "result": "10 to 100 nM"}
{"compound": "COC(=O)c1cc(C2(c3cccc(-c4cc(C#N)ccc4F)c3)N=C(N)N(C)C2=O)cn1CCF (stereo not shown) [Example 195]", "result": "10 to 100 nM"}

Record CCn1cc(C2(c3ccc(F)c(-c4cccnc4F)c3)N=C(N)N(C)C2=O)cn1 (stereo not shown) [Example 10] has UniProtKB P56817 IC50 equal to 10 to 100 nM

Considering CN1C(=O)C(c2cccc(-c3cc(F)ccc3F)c2)(c2cnn(CC(F)(F)F)c2)N=C1N (stereo not shown) [Example 84] , its IC50 with UniProtKB P56817 was recorded as 110 to 1000 nM

Lab note: compound CN1C(=O)C(c2ccc(OC(F)F)cc2)(c2cnn(CC(F)(F)F)c2)N=C1N (stereo not shown) [Example 74] tested on UniProtKB P56817; recorded IC50 was > 1000 nM

Observed IC50 on UniProtKB P56817, entry CCn1cc([C@]2(c3cccc(-c4cccnc4F)c3)N=C(N)N(C)C2=O)cc1C=O [Example 247] , equals 10 to 100 nM

Case Cc1c(C2(c3cccc(-c4cccnc4F)c3)N=C(N)N(C)C2=O)cnn1CC(F)(F)F (stereo not shown) [Example 2] , UniProtKB P56817, IC50 recorded as 110 to 1000 nM

----------
Examples of compounds with documented melting point follow.

# count of solved cases: 6
{"compound": "CCn1cc(C2(c3cccc(-c4cccnc4F)c3)N=C(N)N(C)C2=O)cc1C(=O)NCc1ccc(F)cc1 (stereo not shown) [Example 166]", "melting point": "110 to 112 °C"}
{"compound": "CCn1cc([C@]2(c3ccc(F)c(-c4cccnc4F)c3)N=C(N)N(C)C2=O)cc1C(=O)OC [Example 186]", "melting point": "114 to 117 °C"}
{"compound": "CN1C(=O)C(c2cccc(O)c2)(c2cnn(CC(F)(F)F)c2)N=C1N (stereo not shown) [Example 93]", "melting point": "118 to 120 °C"}
{"compound": "CCC(O)c1cc(C2(c3cccc(-c4cccnc4F)c3)N=C(N)N(C)C2=O)cn1CC (stereo not shown) [Example 240]", "melting point": "115 to 121 °C"}
{"compound": "CCn1cc(C2(c3ccc(F)c(-c4cccnc4F)c3)N=C(N)N(C)C2=O)cc1C(=O)OC (stereo not shown) [Example 123]", "melting point": "113 to 115 °C"}
{"compound": "CCn1cc(C2(c3cccc(-c4cccnc4F)c3)N=C(N)N(C)C2=O)cc1C(=O)NC(C)C (stereo not shown) [Example 161]", "melting point": "121 to 123 °C"}

The value of melting point measured for the compound CN1C(=O)C(c2cccc(-c3cccnc3F)c2)(c2cc(C#N)n(C)c2)N=C1N (stereo not shown) [Example 226] turned out to be 213 to 220 °C

Record CN1C(=O)C(c2cccc(-c3cccnc3F)c2)(c2cnn(CCC3CCCCC3)c2)N=C1N (stereo not shown) [Example 104] , field melting point: 88 to 90 °C

Measured melting point of COC(=O)c1cc(C2(c3ccc(F)c(-c4cncnc4)c3)N=C(N)N(C)C2=O)cn1CCF (stereo not shown) [Example 118] : 88 to 90 °C

// recorded melting point for CCCCOc1cccc(C2(c3cc(C(=O)CC)n(CC)c3)N=C(N)N(C)C2=O)c1 (stereo not shown) [Example 136] : 76 °C

----------
quantityName: melting point

{"compound": "CN1C(=O)C(c2ccc(OC(F)F)cc2)(c2cnn(Cc3ccccc3)c2)N=C1N (stereo not shown)", "melting point": "74 to 76 °C"}
{"compound": "CCn1cc(C2(c3cccc(-c4cccnc4F)c3)N=C(N)N(C)C2=O)cc1C(=O)N(C)C (stereo not shown)", "melting point": "> 200 °C"}
{"compound": "CC(C)CCn1cc(C2(c3cccc(-c4cccnc4F)c3)N=C(N)N(C)C2=O)cn1 (stereo not shown)", "melting point": "86 to 90 °C"}
{"compound": "COC(=O)c1cc(C2(c3cccc(-c4cc(F)cc(F)c4)c3)N=C(N)N(C)C2=O)cn1CCF (stereo not shown)", "melting point": "173 to 176 °C"}
{"compound": "CCC(=O)c1cc(C2(c3cccc(-c4cccnc4F)c3)N=C(N)N(C)C2=O)cn1Cc1cscn1 (stereo not shown)", "melting point": "116 to 120 °C"}
{"compound": "Cc1sccc1C1(c2cccc(-c3cncnc3)c2)N=C(N)N(C)C1=O (stereo not shown)", "melting point": "154 to 159 °C"}

Could you now look at the following compound, please?
Record summary for CCn1ccc(C2(c3cccc(Br)c3)N=C(N)N(C)C2=O)c1 (stereo not shown) : reported melting point = 138 to 140 °C
